- System: Corynebacterium jeikeium
- run description: Antibacterial activity against Corynebacterium jeikeium isolated from patient with diabetic foot infection after 48 hrs by broth microdilution method
- Assay type: functional
Each entry below lists one item and its recorded MIC50 value.
Just the number in µg/mL, nothing appended.

C[C@@H](O)[C@H]1C(=O)N2C(C(=O)O)=C(SCCNC=N)C[C@H]12 [IMIPENEM ANHYDROUS] | 0.25
C[C@@H](O)[C@H]1C(=O)N2C(C(=O)O)=C(S[C@@H]3CN[C@H](C(=O)Nc4cccc(C(=O)O)c4)C3)[C@H](C)[C@H]12 | 1

Query MIC50 for `C[C@@H](O)[C@H]1C(=O)N2C(C(=O)O)=C(S[C@@H]3CN[C@H](C(=O)N(C)C)C3)[C@H](C)[C@H]12`
1

Query MIC50 for `C[C@@H](O)[C@H]1C(=O)N2C(C(=O)O)=C(S[C@@H]3CN[C@H](CNS(N)(=O)=O)C3)[C@H](C)[C@H]12`
1

###

Each entry below lists one item and its recorded MIC50 value.
- Test system: Prevotella bivia
- run description: Antibacterial activity against Prevotella bivia isolated from patient with diabetic foot infection after 44 to 48 hrs by agar dilution method
- Type: functional
Just the number in µg/mL, nothing appended.

Query MIC50 for `C[C@@H](O)[C@H]1C(=O)N2C(C(=O)O)=C(S[C@@H]3CN[C@H](CNS(N)(=O)=O)C3)[C@H](C)[C@H]12`
0.06

Query MIC50 for C[C@@H](O)[C@H]1C(=O)N2C(C(=O)O)=C(SCCNC=N)C[C@H]12 [IMIPENEM ANHYDROUS]
0.03

Query MIC50 for `C[C@@H](O)[C@H]1C(=O)N2C(C(=O)O)=C(S[C@@H]3CN[C@H](C(=O)Nc4cccc(C(=O)O)c4)C3)[C@H](C)[C@H]12`
0.25

Query MIC50 for `Cc1ncc([N+](=O)[O-])n1CCO`
4

Query MIC50 for `C[C@@H](O)[C@H]1C(=O)N2C(C(=O)O)=C(S[C@@H]3CN[C@H](C(=O)N(C)C)C3)[C@H](C)[C@H]12`
0.06

###

- Tested on: Streptococcus dysgalactiae subsp. equisimilis
- run description: Antibacterial activity against Streptococcus dysgalactiae subsp. equisimilis isolated from patient with diabetic foot infection assessed as percent resistant isolates after 18 to 24 hrs by broth microdilution method
- Assay type: functional
metric name: Activity (%)
Just the number in %, nothing appended.

Example entries and their recorded answers appear below.
C[C@@H](O)[C@H]1C(=O)N2C(C(=O)O)=C(SCCNC=N)C[C@H]12 [IMIPENEM ANHYDROUS] | 0
C[C@@H](O)[C@H]1C(=O)N2C(C(=O)O)=C(S[C@@H]3CN[C@H](C(=O)Nc4cccc(C(=O)O)c4)C3)[C@H](C)[C@H]12 | 0
C[C@@H](O)[C@H]1C(=O)N2C(C(=O)O)=C(S[C@@H]3CN[C@H](CNS(N)(=O)=O)C3)[C@H](C)[C@H]12 | 0
CCC[C@@H]1C[C@@H](C(=O)N[C@@H]([C@H]2O[C@H](SC)[C@H](O)[C@@H](O)[C@H]2O)[C@H](C)Cl)N(C)C1 | 13

Query Activity for `C[C@@H](O)[C@H]1C(=O)N2C(C(=O)O)=C(S[C@@H]3CN[C@H](C(=O)N(C)C)C3)[C@H](C)[C@H]12`
0

###

- Test system: Enterocloster clostridioformis
- run description: Antibacterial activity against Clostridium clostridioforme isolated from patient with diabetic foot infection assessed as percent resistant isolates after 44 to 48 hrs by agar dilution method
- Format: functional
Each entry below lists one item and its recorded Activity value.
Just the number in %, nothing appended.

Query Activity for C[C@@H](O)[C@H]1C(=O)N2C(C(=O)O)=C(SCCNC=N)C[C@H]12 [IMIPENEM ANHYDROUS]
0

Query Activity for `C[C@@H](O)[C@H]1C(=O)N2C(C(=O)O)=C(S[C@@H]3CN[C@H](C(=O)N(C)C)C3)[C@H](C)[C@H]12`
0

Query Activity for `CCC[C@@H]1C[C@@H](C(=O)N[C@@H]([C@H]2O[C@H](SC)[C@H](O)[C@@H](O)[C@H]2O)[C@H](C)Cl)N(C)C1`
23

Query Activity for `C[C@@H](O)[C@H]1C(=O)N2C(C(=O)O)=C(S[C@@H]3CN[C@H](C(=O)Nc4cccc(C(=O)O)c4)C3)[C@H](C)[C@H]12`
0

Query Activity for `C[C@@H](O)[C@H]1C(=O)N2C(C(=O)O)=C(S[C@@H]3CN[C@H](CNS(N)(=O)=O)C3)[C@H](C)[C@H]12`
0

Query Activity for `Cc1ncc([N+](=O)[O-])n1CCO`
0

###

Each entry below lists one item and its recorded Activity value.
- System: Streptococcus agalactiae
- run description: Antibacterial activity against Streptococcus agalactiae isolated from patient with diabetic foot infection assessed as percent resistant isolates after 18 to 24 hrs by broth microdilution method
- Type: functional

Example entries and their recorded answers appear below.
C[C@@H](O)[C@H]1C(=O)N2C(C(=O)O)=C(S[C@@H]3CN[C@H](C(=O)N(C)C)C3)[C@H](C)[C@H]12 | 0%
C[C@@H](O)[C@H]1C(=O)N2C(C(=O)O)=C(S[C@@H]3CN[C@H](CNS(N)(=O)=O)C3)[C@H](C)[C@H]12 | 0%
CCC[C@@H]1C[C@@H](C(=O)N[C@@H]([C@H]2O[C@H](SC)[C@H](O)[C@@H](O)[C@H]2O)[C@H](C)Cl)N(C)C1 | 33%
C[C@@H](O)[C@H]1C(=O)N2C(C(=O)O)=C(S[C@@H]3CN[C@H](C(=O)Nc4cccc(C(=O)O)c4)C3)[C@H](C)[C@H]12 | 0%

Query Activity for C[C@@H](O)[C@H]1C(=O)N2C(C(=O)O)=C(SCCNC=N)C[C@H]12 [IMIPENEM ANHYDROUS]
0%

###

Each entry below lists one item and its recorded MIC90 value.
- System: Cutibacterium acnes
- run description: Antibacterial activity against Propionibacterium acnes isolated from patient with diabetic foot infection after 44 to 48 hrs by agar dilution method
- Type: functional

Query MIC90 for `CCC[C@@H]1C[C@@H](C(=O)N[C@@H]([C@H]2O[C@H](SC)[C@H](O)[C@@H](O)[C@H]2O)[C@H](C)Cl)N(C)C1`
2 µg/mL

Query MIC90 for `C[C@@H](O)[C@H]1C(=O)N2C(C(=O)O)=C(S[C@@H]3CN[C@H](C(=O)Nc4cccc(C(=O)O)c4)C3)[C@H](C)[C@H]12`
0.25 µg/mL

Query MIC90 for `Cc1ncc([N+](=O)[O-])n1CCO`
> 32 µg/mL

Query MIC90 for `C[C@@H](O)[C@H]1C(=O)N2C(C(=O)O)=C(S[C@@H]3CN[C@H](CNS(N)(=O)=O)C3)[C@H](C)[C@H]12`
0.125 µg/mL

Query MIC90 for `C[C@@H](O)[C@H]1C(=O)N2C(C(=O)O)=C(S[C@@H]3CN[C@H](C(=O)N(C)C)C3)[C@H](C)[C@H]12`
0.25 µg/mL

Query MIC90 for C[C@@H](O)[C@H]1C(=O)N2C(C(=O)O)=C(SCCNC=N)C[C@H]12 [IMIPENEM ANHYDROUS]
≤ 0.015 µg/mL

###

- Test system: Clostridium malenominatum
- run description: Antibacterial activity against Clostridium malenominatum isolated from patient with diabetic foot infection assessed as percent resistant isolates after 44 to 48 hrs by agar dilution method
- Type: functional
Each entry below lists one item and its recorded Activity value.
Just the number in %, nothing appended.

C[C@@H](O)[C@H]1C(=O)N2C(C(=O)O)=C(S[C@@H]3CN[C@H](C(=O)N(C)C)C3)[C@H](C)[C@H]12 | 0
C[C@@H](O)[C@H]1C(=O)N2C(C(=O)O)=C(SCCNC=N)C[C@H]12 [IMIPENEM ANHYDROUS] | 0
Cc1ncc([N+](=O)[O-])n1CCO | 0
CCC[C@@H]1C[C@@H](C(=O)N[C@@H]([C@H]2O[C@H](SC)[C@H](O)[C@@H](O)[C@H]2O)[C@H](C)Cl)N(C)C1 | 23
C[C@@H](O)[C@H]1C(=O)N2C(C(=O)O)=C(S[C@@H]3CN[C@H](C(=O)Nc4cccc(C(=O)O)c4)C3)[C@H](C)[C@H]12 | 0

Query Activity for `C[C@@H](O)[C@H]1C(=O)N2C(C(=O)O)=C(S[C@@H]3CN[C@H](CNS(N)(=O)=O)C3)[C@H](C)[C@H]12`
0

###

- Tested on: Bacteroides ovatus
- run description: Antibacterial activity against Bacteroides ovatus isolated from patient with diabetic foot infection assessed as percent resistant isolates after 44 to 48 hrs by agar dilution method
- Format: functional
metric name: Activity (%)
Just the number in %, nothing appended.

Example entries and their recorded answers appear below.
CCC[C@@H]1C[C@@H](C(=O)N[C@@H]([C@H]2O[C@H](SC)[C@H](O)[C@@H](O)[C@H]2O)[C@H](C)Cl)N(C)C1 | 20
C[C@@H](O)[C@H]1C(=O)N2C(C(=O)O)=C(S[C@@H]3CN[C@H](CNS(N)(=O)=O)C3)[C@H](C)[C@H]12 | 0
C[C@@H](O)[C@H]1C(=O)N2C(C(=O)O)=C(S[C@@H]3CN[C@H](C(=O)N(C)C)C3)[C@H](C)[C@H]12 | 0

Query Activity for `C[C@@H](O)[C@H]1C(=O)N2C(C(=O)O)=C(S[C@@H]3CN[C@H](C(=O)Nc4cccc(C(=O)O)c4)C3)[C@H](C)[C@H]12`
0

Query Activity for C[C@@H](O)[C@H]1C(=O)N2C(C(=O)O)=C(SCCNC=N)C[C@H]12 [IMIPENEM ANHYDROUS]
0

Query Activity for `Cc1ncc([N+](=O)[O-])n1CCO`
0

Recorded values, source ChEMBL document CHEMBL1153560.
